Let's look at some molecules and their measured log10 IC50.
target: UniProt P49336
Short version: log10 scale, IC50, nM.

molecule=C[C@]12CC[C@H]3[C@@H](CC=C4C[C@@H](O)CC[C@@]43C)[C@@H]1CC[C@@H]2c1ccc2cnccc2c1 system="UniProt P49336" value_measured=3.78

**Query** Test system UniProt P49336; read-out log10 IC50; what value for C[C@]12CC[C@H](n3ccnn3)C[C@@H]1CC[C@@H]1[C@@H]2CC[C@]2(C)[C@@H](c3ccc4ccncc4c3)CC[C@@H]12 ?
**Result** 1.38

**Query** Test system UniProt P49336; read-out log10 IC50; what value for CN(C)[C@H]1CC[C@@]2(C)C(=CC[C@H]3[C@@H]4CC[C@H](c5ccc6ccncc6c5)[C@@]4(C)CC[C@@H]32)C1 ?
**Result** 1.20

**Query** Test system UniProt P49336; read-out log10 IC50; what value for CN(C)[C@H]1CC[C@@]2(C)[C@@H](CC[C@@H]3[C@@H]2CC[C@]2(C)[C@@H](c4ccc5ccncc5c4)CC[C@@H]32)C1 ?
**Result** 1.38

**Query** Test system UniProt P49336; read-out log10 IC50; what value for C[C@]12CC[C@H](O)CC1=CC[C@@H]1[C@@H]2CC[C@]2(C)C(c3ccc4c(N)n[nH]c4c3)=CC[C@@H]12 ?
**Result** 3.18

**Query** Test system UniProt P49336; read-out log10 IC50; what value for C[C@]12CC[C@H](O)CC1=CC[C@@H]1[C@@H]2CC[C@]2(C)C(c3ccc4nc(N)ncc4c3)=CC[C@@H]12 ?
**Result** 3.36

**Query** Test system UniProt P49336; read-out log10 IC50; what value for CN1C(=O)CCC(N2C(=O)c3cccc(NCCOCCOCCOCCOCCC(=O)N(C)[C@H]4CC[C@@]5(C)[C@@H](CC[C@@H]6[C@@H]5CC[C@]5(C)[C@@H](c7ccc8ccncc8c7)CC[C@@H]65)C4)c3C2=O)C1=O (stereo not given in full) ?
**Result** 2.65

###

molecular target: Cyclin-dependent kinase 19 (Homo sapiens, UniProt Q9BWU1)
Sequence (Q9BWU1 whole entry): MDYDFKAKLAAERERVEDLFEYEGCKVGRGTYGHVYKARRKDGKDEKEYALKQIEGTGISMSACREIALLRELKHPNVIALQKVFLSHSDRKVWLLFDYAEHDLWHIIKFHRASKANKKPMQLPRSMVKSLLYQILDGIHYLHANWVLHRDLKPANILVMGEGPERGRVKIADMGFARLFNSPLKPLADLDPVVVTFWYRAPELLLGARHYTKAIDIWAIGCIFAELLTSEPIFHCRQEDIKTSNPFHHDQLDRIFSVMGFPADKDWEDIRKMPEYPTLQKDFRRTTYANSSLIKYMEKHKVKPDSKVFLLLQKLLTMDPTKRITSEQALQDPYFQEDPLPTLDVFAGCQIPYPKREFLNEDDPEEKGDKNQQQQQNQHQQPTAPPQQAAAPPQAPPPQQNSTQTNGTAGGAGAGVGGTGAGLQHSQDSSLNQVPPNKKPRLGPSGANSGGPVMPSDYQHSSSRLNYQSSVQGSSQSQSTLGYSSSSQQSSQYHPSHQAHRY
measured quantity: pIC50
Units for pIC50: none; it is -log10 of a concentration expressed in mol/L.

**Query** Test system Cyclin-dependent kinase 19 (Homo sapiens, UniProt Q9BWU1); read-out pIC50; what value for CN(C)[C@H]1CC[C@@]2(C)C(=CC[C@H]3[C@@H]4CC[C@H](c5ccc6ccncc6c5)[C@@]4(C)CC[C@@H]32)C1 ?
**Result** 8.10

###

biological target: Serine/threonine-protein kinase Nek1 (Homo sapiens, UniProt Q96PY6); test: Inhibition of wild-type human partial length NEK1 (M1 to K278 residues) expressed in bacterial expression system by Kinomescan method
Sequence (Q96PY6 whole entry, the tested form may be a part): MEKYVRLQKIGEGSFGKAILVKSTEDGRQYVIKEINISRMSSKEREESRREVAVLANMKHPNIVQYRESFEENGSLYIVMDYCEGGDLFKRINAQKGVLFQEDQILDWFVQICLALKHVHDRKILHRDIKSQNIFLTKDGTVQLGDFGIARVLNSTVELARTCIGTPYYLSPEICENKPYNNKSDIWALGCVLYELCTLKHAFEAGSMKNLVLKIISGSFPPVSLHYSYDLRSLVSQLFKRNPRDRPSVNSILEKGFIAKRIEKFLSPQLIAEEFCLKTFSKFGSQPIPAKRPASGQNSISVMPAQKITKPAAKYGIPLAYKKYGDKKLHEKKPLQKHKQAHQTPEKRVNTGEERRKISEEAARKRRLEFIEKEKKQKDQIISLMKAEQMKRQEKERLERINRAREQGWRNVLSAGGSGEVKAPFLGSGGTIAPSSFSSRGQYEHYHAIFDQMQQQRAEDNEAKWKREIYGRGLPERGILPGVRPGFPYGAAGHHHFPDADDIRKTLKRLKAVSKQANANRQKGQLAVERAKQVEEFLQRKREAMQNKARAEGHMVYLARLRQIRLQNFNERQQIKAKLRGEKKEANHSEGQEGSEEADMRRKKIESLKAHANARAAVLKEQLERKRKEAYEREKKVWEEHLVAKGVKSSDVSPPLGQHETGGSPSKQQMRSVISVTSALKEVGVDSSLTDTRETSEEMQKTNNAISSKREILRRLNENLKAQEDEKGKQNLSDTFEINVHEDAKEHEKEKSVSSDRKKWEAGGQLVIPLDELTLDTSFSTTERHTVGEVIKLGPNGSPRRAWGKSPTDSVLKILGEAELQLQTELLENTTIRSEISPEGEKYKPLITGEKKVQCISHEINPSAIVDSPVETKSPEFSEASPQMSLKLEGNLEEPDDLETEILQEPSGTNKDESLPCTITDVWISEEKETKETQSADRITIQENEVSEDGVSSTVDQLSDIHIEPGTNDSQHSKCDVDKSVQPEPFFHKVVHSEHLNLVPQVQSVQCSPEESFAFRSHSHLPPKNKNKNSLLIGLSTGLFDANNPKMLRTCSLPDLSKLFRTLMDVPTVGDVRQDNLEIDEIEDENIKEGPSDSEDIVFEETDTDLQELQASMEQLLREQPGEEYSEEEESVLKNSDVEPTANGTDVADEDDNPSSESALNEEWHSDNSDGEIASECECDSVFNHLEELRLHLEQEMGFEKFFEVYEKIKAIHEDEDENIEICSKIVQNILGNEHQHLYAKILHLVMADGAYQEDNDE
measured quantity: IC50

**Query** Value lookup for IC50; key = CN(C)[C@H]1CC[C@@]2(C)C(=CC[C@H]3[C@@H]4CC[C@H](c5ccc6ccncc6c5)[C@@]4(C)CC[C@@H]32)C1
**Result** > 10 µM

###

target: Cyclin-dependent kinase 8 (Homo sapiens); test: Inhibition of CDK8 (unknown origin)
Let's look at some compounds and their measured pIC50.
Units for pIC50: none; it is -log10 of a concentration expressed in mol/L.

compound=C[C@]12CC[C@H](O)CC1=CC[C@@H]1[C@@H]2CC[C@]2(C)C(c3ccc4ccncc4c3)=CC[C@@H]12 measured_quantity=pIC50 value_measured=6.79
compound=CN(C)[C@@H]1CC[C@@]2(C)[C@@H](CC[C@@H]3[C@@H]2CC[C@]2(C)[C@@H](c4ccc5ccncc5c4)CC[C@@H]32)C1 measured_quantity=pIC50 value_measured=7.19
compound=CN[C@H]1CC[C@@]2(C)[C@@H](CC[C@@H]3[C@@H]2CC[C@]2(C)[C@@H](c4ccc5ccncc5c4)CC[C@@H]32)C1 measured_quantity=pIC50 value_measured=5.88

**Query** Test system Cyclin-dependent kinase 8 (Homo sapiens); read-out pIC50; what value for C[C@]12CC[C@H](O)C[C@@H]1CC[C@@H]1[C@@H]2CC[C@]2(C)[C@@H](c3ccc4ccncc4c3)CC[C@@H]12 ?
**Result** 6.68

**Query** Test system Cyclin-dependent kinase 8 (Homo sapiens); read-out pIC50; what value for CN(C(=O)CCOCCOCCOCCOCCNc1cccc2c1C(=O)N(C1CCC(=O)NC1=O)C2=O)[C@H]1CC[C@@]2(C)[C@@H](CC[C@@H]3[C@@H]2CC[C@]2(C)[C@@H](c4ccc5ccncc5c4)CC[C@@H]32)C1 (stereo partly drawn) ?
**Result** 6.80

**Query** Test system Cyclin-dependent kinase 8 (Homo sapiens); read-out pIC50; what value for C[C@]12CC[C@H]3[C@@H](CC=C4C[C@@H](O)CC[C@@]43C)[C@@H]1CC[C@@H]2c1ccc2ccncc2c1 ?
**Result** 7.32

**Query** Test system Cyclin-dependent kinase 8 (Homo sapiens); read-out pIC50; what value for C[C@]12CC[C@H](O)CC1=CC[C@@H]1[C@@H]2CC[C@]2(C)C(c3ccc4cnccc4c3)=CC[C@@H]12 ?
**Result** 5.08

###

target: Cyclin-dependent kinase 8 (Homo sapiens, UniProt P49336); assay: Inhibition of CDK8 (unknown origin)
Sequence (P49336 whole entry): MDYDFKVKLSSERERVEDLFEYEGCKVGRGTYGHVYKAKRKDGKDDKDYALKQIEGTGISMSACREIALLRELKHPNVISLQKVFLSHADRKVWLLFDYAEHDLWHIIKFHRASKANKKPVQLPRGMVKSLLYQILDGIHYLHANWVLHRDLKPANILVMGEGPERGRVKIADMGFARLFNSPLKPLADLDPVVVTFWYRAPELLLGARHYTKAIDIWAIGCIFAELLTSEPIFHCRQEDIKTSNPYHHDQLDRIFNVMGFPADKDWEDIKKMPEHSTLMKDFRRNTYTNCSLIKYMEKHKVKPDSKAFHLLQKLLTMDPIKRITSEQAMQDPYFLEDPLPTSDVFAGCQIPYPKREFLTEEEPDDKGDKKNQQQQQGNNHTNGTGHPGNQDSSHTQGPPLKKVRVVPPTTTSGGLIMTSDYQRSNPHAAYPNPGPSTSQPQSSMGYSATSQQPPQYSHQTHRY
Response field label takes Fulfilled when IC50 is strictly below 700 nM and Not fulfilled in all other cases.

compound=C[C@]12CC[C@H](O)CC1=CC[C@@H]1[C@@H]2CC[C@]2(C)C(c3ccc4[nH]ncc4c3)=CC[C@@H]12 qualitative_label="Not fulfilled"
compound=C[C@]12CC[C@H](O)CC1=CC[C@@H]1[C@@H]2CC[C@]2(C)C(c3ccc4cnncc4c3)=CC[C@@H]12 qualitative_label="Not fulfilled"
compound=C[C@]12CC[C@H]3[C@@H](CC=C4C[C@@H](O)CC[C@@]43C)[C@@H]1CC[C@@H]2c1ccc2cnncc2c1 qualitative_label="Not fulfilled"
compound=C[C@]12CC[C@H](O)CC1=CC[C@@H]1[C@@H]2CC[C@]2(C)C(c3ccc4cn[nH]c4c3)=CC[C@@H]12 qualitative_label="Not fulfilled"
compound=C[C@]12CC[C@H]3[C@@H](CC=C4C[C@@H](O)CC[C@@]43C)[C@@H]1CC[C@@H]2c1ccc2nc(N)ncc2c1 qualitative_label=Fulfilled
compound=C[C@]12CC[C@H]3[C@@H](CC=C4C[C@@H](O)CC[C@@]43C)[C@@H]1CC[C@@H]2c1ccc2cn[nH]c2c1 qualitative_label="Not fulfilled"
compound=C[C@]12CC[C@H]3[C@@H](CC=C4C[C@@H](O)CC[C@@]43C)[C@@H]1CC[C@@H]2c1ccc2[nH]ncc2c1 qualitative_label="Not fulfilled"
compound=C[C@]12CC[C@H](O)C[C@@H]1CC[C@@H]1[C@@H]2CC[C@]2(C)C(c3ccc4ccncc4c3)=CC[C@@H]12 qualitative_label="Not fulfilled"

**Query** Record C[C@]12CC[C@H](N3CCOCC3)C[C@@H]1CC[C@@H]1[C@@H]2CC[C@]2(C)[C@@H](c3ccc4ccncc4c3)CC[C@@H]12 : is its IC50 strictly below 700 nM?
**Result** Fulfilled

**Query** Record CN(C(=O)CCOCCOCCNc1cccc2c1C(=O)N(C1CCC(=O)NC1=O)C2=O)[C@H]1CC[C@@]2(C)[C@@H](CC[C@@H]3[C@@H]2CC[C@]2(C)[C@@H](c4ccc5ccncc5c4)CC[C@@H]32)C1 (stereo partly specified) : is its IC50 strictly below 700 nM?
**Result** Fulfilled
